Parameter protein stability index: see the listing below.
B1: KRT13 (parent)
chain: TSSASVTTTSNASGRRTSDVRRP

Variants of: B1
Assay: protein stability index of a GFP-peptide fusion (GPS, HEK-293T) (PSI 1-6); higher = more stable;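 further: lentivirally expressed fusions sorted by FACS into six bins by GFP to DsRed ratio, PSI derived from sequencing read proportions per bin multiplied by bin number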
Settings: c terminus: native
// no unit string in output, number only

Incoming: Tell me the measured protein stability index of R16N , please.
Outgoing: 2.05

Incoming: Tell me the measured protein stability index of S3E , please.
Outgoing: 2.8

Incoming: Tell me the measured protein stability index of P23H , please.
Outgoing: 1.77

Incoming: Tell me the measured protein stability index of R16G , please.
Outgoing: 1.04

Incoming: Tell me the measured protein stability index of V20E , please.
Outgoing: 2.52

Incoming: Tell me the measured protein stability index of T1E , please.
Outgoing: 2.33
